Listed next: entries and their corresponding abundance fitness.
B1: Ankyrin repeat and SOCS box protein 14, residues 532 to 572; numbered along this chain, A6NK59 (parent)
chain: RSLKHLCRLKIRKCMGRLHLRCPVFMSFLPLPNRLKAYVLY

# Variants of: B1
# procedure-summary: abundance fitness (aPCA) (normalised: wild type 0, dead -1); higher = more abundant; growth selection in yeast, the domain comes from the species named
# condition-info: Homo sapiens
Answer as a number with no unit attached.

INSERT INTO results (item_sequence, assay_result) VALUES
  ('RSLKHLCRLKIRKCMGRLHLRCPVTMSFLPLPNRLKAYVLY', -0.243),
  ('RSLKHLCRLKIRKCMGRLHLRCPVFMSFLPLHNRLKAYVLY', -0.47),
  ('RSLKHLCRLKIRKCMGRLHLRCPVFMSFLPAPNRLKAYVLY', -0.272);

Ask | Can you look up the measured abundance fitness of RSLKHLCRLKIRKCMGRLHLRCPVFMSFLPLPNRLKEYVLY for me?
Reply | 0.021

Ask | Can you look up the measured abundance fitness of MSLKHLCRLKIRKCMGRLHLRCPVFMSFLPLPNRLKAYVLY for me?
Reply | 0.386

Ask | Can you look up the measured abundance fitness of RSLKHLCRLKIRKCMGRLHLRCPVFMSFLPLGNRLKAYVLY for me?
Reply | -0.223

Ask | Can you look up the measured abundance fitness of RSLKHLCRLKIRKCMGRLHLRCPVFMSFLPLPNRLKARVLY for me?
Reply | -0.446

Ask | Can you look up the measured abundance fitness of RSLKHLCRLKIRKCMGRLHLRCPVFMSFLPLPIRLKAYVLY for me?
Reply | -0.452

Ask | Can you look up the measured abundance fitness of RSLKHLCRLKIRKCMGRLHLRCPVFMSFLPLPNFLKAYVLY for me?
Reply | -0.168
